assay: in vivo; format: in vivo; details: nude, mouse, in vivo, CCI-779 (prototype) concentration, Blood Plasma
endpoint_name: concentration at 12 h

[ask] Return value of concentration at 12 h for input CO[C@H]1C[C@@H]2CC[C@@H](C)[C@@](O)(O2)C(=O)C(=O)N2CCCC[C@H]2C(=O)O[C@H]([C@H](C)C[C@@H]2CC[C@@H](OC(=O)C(C)(CO)CO)[C@H](OC)C2)CC(=O)[C@H](C)/C=C(\C)[C@@H](O)[C@@H](OC)C(=O)[C@H](C)C[C@H](C)/C=C/C=C/C=C/1C , no commentary.
[reply] 1.3 ng/mL

* * *

Examples of compounds with documented CC50 at 48 h follow.
test: MTT cytotoxicity on mouse spleen lymphocytes; type: cell-based, BALB/c mice; conditions: BALB/c, MTT assay
Give the value, in units of µM, as a plain number.

compound	observed
CO[C@H]1C[C@@H]2CC[C@@H](C)[C@@](O)(O2)C(=O)C(=O)N2CCCC[C@H]2C(=O)O[C@H]([C@H](C)C[C@@H]2CC[C@@H](OC(=O)OCC(O)CO)[C@H](OC)C2)CC(=O)[C@H](C)/C=C(\C)[C@@H](O)[C@@H](OC)C(=O)[C@H](C)C[C@H](C)/C=C/C=C/C=C/1C (some centres unmarked) [Y31]	36.9

[ask] Return value of CC50 at 48 h for input CO[C@H]1C[C@@H]2CC[C@@H](C)[C@@](O)(O2)C(=O)C(=O)N2CCCC[C@H]2C(=O)O[C@H]([C@H](C)C[C@@H]2CC[C@@H](O)[C@H](OC)C2)CC(=O)[C@H](C)/C=C(\C)[C@@H](O)[C@@H](OC)C(=O)[C@H](C)C[C@H](C)/C=C/C=C/C=C/1C [Rapamycin] , no commentary.
[reply] 45.5

* * *

assay: in vivo; format: in vivo; details: nude, mouse, in vivo, CCI-779 (prototype) concentration, Tumor
endpoint_name: concentration at 2 h (ng/g)
Give the value, in units of ng/g, as a plain number.

[ask] Return value of concentration at 2 h for input CO[C@H]1C[C@@H]2CC[C@@H](C)[C@@](O)(O2)C(=O)C(=O)N2CCCC[C@H]2C(=O)O[C@H]([C@H](C)C[C@@H]2CC[C@@H](OC(=O)C(C)(CO)CO)[C@H](OC)C2)CC(=O)[C@H](C)/C=C(\C)[C@@H](O)[C@@H](OC)C(=O)[C@H](C)C[C@H](C)/C=C/C=C/C=C/1C , no commentary.
[reply] 31.1

* * *

assay: Distribution profile of prototype drug and rapamycin in plasma, liver and tumor of nude mice (LC-MS); format: in vivo; settings: nude, mouse, tumor; read-out: AUCtissue/AUCplasma
endpoint_name: Kp
Keep it simple and answer with nothing but the number.

[ask] Return value of Kp for input CO[C@H]1C[C@@H]2CC[C@@H](C)[C@@](O)(O2)C(=O)C(=O)N2CCCC[C@H]2C(=O)O[C@H]([C@H](C)C[C@@H]2CC[C@@H](OC(=O)C(C)(CO)CO)[C@H](OC)C2)CC(=O)[C@H](C)/C=C(\C)[C@@H](O)[C@@H](OC)C(=O)[C@H](C)C[C@H](C)/C=C/C=C/C=C/1C , no commentary.
[reply] 4.77

* * *

assay: in vivo; format: in vivo; conditions: nude, mouse, in vivo
endpoint_name: AUC(0-t) (µg·h/mL)
Give the value, in units of µg·h/mL, as a plain number.

[ask] Return value of AUC(0-t) for input CO[C@H]1C[C@@H]2CC[C@@H](C)[C@@](O)(O2)C(=O)C(=O)N2CCCC[C@H]2C(=O)O[C@H]([C@H](C)C[C@@H]2CC[C@@H](OC(=O)C(C)(CO)CO)[C@H](OC)C2)CC(=O)[C@H](C)/C=C(\C)[C@@H](O)[C@@H](OC)C(=O)[C@H](C)C[C@H](C)/C=C/C=C/C=C/1C , no commentary.
[reply] 0.106

* * *

test: Distribution profile of prototype drug and rapamycin in plasma, liver and tumor of nude mice (LC-MS); assay type: in vivo; settings: nude, mouse, liver, 0.5 h after administration, mean of 3 animals; read-out: Y31 (prototype) concentration, Liver, Mean Value
endpoint_name: concentration at 0.5 h (ng/g)
Give the value, in units of ng/g, as a plain number.

[ask] Return value of concentration at 0.5 h for input CO[C@H]1C[C@@H]2CC[C@@H](C)[C@@](O)(O2)C(=O)C(=O)N2CCCC[C@H]2C(=O)O[C@H]([C@H](C)C[C@@H]2CC[C@@H](OC(=O)OCC(O)CO)[C@H](OC)C2)CC(=O)[C@H](C)/C=C(\C)[C@@H](O)[C@@H](OC)C(=O)[C@H](C)C[C@H](C)/C=C/C=C/C=C/1C (stereo partly shown) , no commentary.
[reply] 9.72

* * *

assay: in vivo; format: in vivo; details: nude, mouse, in vivo, CCI-779 (prototype) concentration, Tumor, Mean Value
endpoint_name: concentration at 5 h (ng/g)
Give the value, in units of ng/g, as a plain number.

[ask] Return value of concentration at 5 h for input CO[C@H]1C[C@@H]2CC[C@@H](C)[C@@](O)(O2)C(=O)C(=O)N2CCCC[C@H]2C(=O)O[C@H]([C@H](C)C[C@@H]2CC[C@@H](OC(=O)C(C)(CO)CO)[C@H](OC)C2)CC(=O)[C@H](C)/C=C(\C)[C@@H](O)[C@@H](OC)C(=O)[C@H](C)C[C@H](C)/C=C/C=C/C=C/1C , no commentary.
[reply] 16.6

* * *

test: in vivo; assay type: in vivo; conditions: nude, mouse, in vivo, CCI-779 (prototype) concentration, Liver, Mean Value
endpoint_name: concentration at 2 h (ng/g)
Give the value, in units of ng/g, as a plain number.

[ask] Return value of concentration at 2 h for input CO[C@H]1C[C@@H]2CC[C@@H](C)[C@@](O)(O2)C(=O)C(=O)N2CCCC[C@H]2C(=O)O[C@H]([C@H](C)C[C@@H]2CC[C@@H](OC(=O)C(C)(CO)CO)[C@H](OC)C2)CC(=O)[C@H](C)/C=C(\C)[C@@H](O)[C@@H](OC)C(=O)[C@H](C)C[C@H](C)/C=C/C=C/C=C/1C [CCI-779] , no commentary.
[reply] 151

* * *

assay: in vivo; assay type: in vivo; conditions: nude, mouse, in vivo, CCI-779 (prototype) concentration, Blood Plasma, Mean Value
endpoint_name: concentration at 2 h (ng/mL)
Give the value, in units of ng/mL, as a plain number.

[ask] Return value of concentration at 2 h for input CO[C@H]1C[C@@H]2CC[C@@H](C)[C@@](O)(O2)C(=O)C(=O)N2CCCC[C@H]2C(=O)O[C@H]([C@H](C)C[C@@H]2CC[C@@H](OC(=O)C(C)(CO)CO)[C@H](OC)C2)CC(=O)[C@H](C)/C=C(\C)[C@@H](O)[C@@H](OC)C(=O)[C@H](C)C[C@H](C)/C=C/C=C/C=C/1C [CCI-779] , no commentary.
[reply] 11.7

* * *

experiment: in vivo; format: in vivo; details: nude, mouse, in vivo, CCI-779 (prototype) concentration, Liver, Mean Value
endpoint_name: concentration at 48 h (ng/g)
Give the value, in units of ng/g, as a plain number.

[ask] Return value of concentration at 48 h for input CO[C@H]1C[C@@H]2CC[C@@H](C)[C@@](O)(O2)C(=O)C(=O)N2CCCC[C@H]2C(=O)O[C@H]([C@H](C)C[C@@H]2CC[C@@H](OC(=O)C(C)(CO)CO)[C@H](OC)C2)CC(=O)[C@H](C)/C=C(\C)[C@@H](O)[C@@H](OC)C(=O)[C@H](C)C[C@H](C)/C=C/C=C/C=C/1C [CCI-779] , no commentary.
[reply] 3.11

* * *

test: Distribution profile of prototype drug and rapamycin in plasma, liver and tumor of nude mice (LC-MS); format: in vivo; settings: nude, mouse, plasma, 5.0 h after administration, individual animals; read-out: Y31 (prototype) concentration, Blood Plasma
endpoint_name: concentration at 5 h (ng/mL)
Give the value, in units of ng/mL, as a plain number.

[ask] Return value of concentration at 5 h for input CO[C@H]1C[C@@H]2CC[C@@H](C)[C@@](O)(O2)C(=O)C(=O)N2CCCC[C@H]2C(=O)O[C@H]([C@H](C)C[C@@H]2CC[C@@H](OC(=O)OCC(O)CO)[C@H](OC)C2)CC(=O)[C@H](C)/C=C(\C)[C@@H](O)[C@@H](OC)C(=O)[C@H](C)C[C@H](C)/C=C/C=C/C=C/1C (stereo partly shown) [Y31] , no commentary.
[reply] 0.18

* * *

Examples of molecules with documented CC50 follow.
assay: Immunosuppressive activity assay: cytotoxicity; type: cell-based; conditions: Table 10, value beyond the >100 μM bound; read-out: Cytotoxicity CC50, value in brackets

Use these answered entries as a reference point.
molecule	endpoint_name	observed
CO[C@H]1C[C@@H]2CC[C@@H](C)[C@@](O)(O2)C(=O)C(=O)N2CCCC[C@H]2C(=O)O[C@H]([C@H](C)C[C@@H]2CC[C@@H](O)[C@H](OC)C2)CC(=O)[C@H](C)/C=C(\C)[C@@H](O)[C@@H](OC)C(=O)[C@H](C)C[C@H](C)/C=C/C=C/C=C/1C	CC50	3.6 mM
CO[C@H]1CC2CC[C@@H](C)[C@@](O)(O2)C(=O)C(=O)N2CCCCC2C(=O)O[C@H]([C@H](C)C[C@@H]2CC[C@@H](OC(=O)OCC(O)CO)[C@H](OC)C2)CC(=O)[C@H](C)/C=C(\C)[C@@H](OC(=O)OCC(O)CO)[C@@H](OC)C(=O)[C@H](C)C[C@H](C)/C=C/C=C/C=C/1C (stereo partly drawn)	CC50	7.59 mM

The record that follows has no CC50 shown yet.
[ask] Return value of CC50 for input CO[C@H]1CC2CC[C@@H](C)[C@@](O)(O2)C(=O)C(=O)N2CCCCC2C(=O)O[C@H]([C@H](C)C[C@@H]2CC[C@@H](OC(=O)OCC3COC(C)(C)O3)[C@H](OC)C2)CC(=O)[C@H](C)/C=C(\C)[C@@H](OC(=O)OCC2COC(C)(C)O2)[C@@H](OC)C(=O)[C@H](C)C[C@H](C)/C=C/C=C/C=C/1C (stereo partly drawn) , no commentary.
[reply] 39.8 mM
